# Test system: BT-549 breast
# Assay remarks: NCI-60 one-dose screen, 48 h (100 = growth as untreated, 0 = no growth, -100 = all killed)
# Setup conditions: 10 µM unless noted
About 83,000 compounds went through this panel and 20% of them were active in at least one assay; those are over-represented in the sample as a whole.
Classify: yes (1) when growth is strictly less than 80%; no (0) when growth is not.

Some solved entries appear below for comparison.
O=C1Cc2cc(CCN3CCN(CCOCCO)CC3)c(Cl)cc2N1Cc1ccc(-c2ccccc2-c2nn[nH]n2)cc1; no (0)
CCCCCCCCCCSc1ncnc2nc[nH]c12; yes (1)
C[C@@H]1CC[C@H]2[C@@H](C)C(O)O[C@@H]3O[C@]4(C)CC[C@@H]1[C@]32OO4 (stereo not given in full); yes (1)
COc1ccc(-c2nnc(COc3ccc(NC(=O)Nc4cc(C(F)(F)F)cc(C(F)(F)F)c4)cc3F)o2)cc1; yes (1)

Read the next record carefully.
Q) Bench note: check whether CCn1c2ccccc2c2ccc(C(C)=O)cc21 shows growth below 80%
A) no (0)

----------
# Test system: RXF 393 renal
# Assay remarks: NCI-60 one-dose screen, 48 h (100 = growth as untreated, 0 = no growth, -100 = all killed)
# Setup conditions: 10 µM unless noted
# Method: Cells are grown in 96 well plates and exposed to the test compound for 48 hours. Compounds are tested at a single concentration, which is 10^-5 M for most compounds. The reported endpoint is percent growth (GI% or GIPRCNT), where numbers from 0 - 100% represent growth inhibition, and numbers from -100% - 0 represent cell death. For example, a value of 40 represents 60% growth inhibition. A value of 0 means no net growth occurred over the course of the experiment. […]
The panel holds about 83,000 compounds, 20% with a hit somewhere; the sample as a whole holds those more often.
Returns met if the recorded growth is greater than or equal to 80%, and not met otherwise.

Consider the worked cases shown below.
COc1ccc(-c2nnc(COc3ccc(NC(=O)Nc4cc(C(F)(F)F)cc(C(F)(F)F)c4)cc3F)o2)cc1; not met
COc1ccc2c3c(c(OCCCN(C)C)nc2c1)-c1ccc(Cl)cc1C3=O; not met

Q) Quick check: does O=C1Cc2cc(CCN3CCN(CCOCCO)CC3)c(Cl)cc2N1Cc1ccc(-c2ccccc2-c2nn[nH]n2)cc1 have growth greater than or equal to 80%?
A) met

Q) Is growth for C=C(C[C@](O)(C(=O)/C=C/c1ccc(Cl)cc1)C(=O)OC)c1ccccc1 at or above 80%?
A) not met

Q) Has O=C1NC(=O)/C(=C\c2ccccc2)C2=C1CCCC2 a recorded growth greater than or equal to 80%?
A) not met

Q) Hello, I need to know if COc1ccc2[nH]cc(/C=C3/C(=O)Nc4ccc(Cl)cc43)c2c1 has measured growth not below 80%. Thanks!
A) not met

Q) State whether the measured growth reaches 80%, counting equality as reaching it, for C=CC1=C(C(=O)O)N2C(=O)[C@@H](NC(=O)/C(=N\O)c3csc(N)n3)[C@H]2SC1 (stereo in doubt)
A) met

Q) Given O=Nc1ccc(O)c(=O)cc1 , state whether its growth is at least 80%.
A) not met

Q) For this compound, is measured growth 80% or higher? c1ccc(N2CCN(c3nncc4ccccc34)CC2)nc1
A) met

Q) API: above_or_equal(metric=growth, cutoff=80%) for item C[N+]1(CCc2ccccc2)CCC(CCC2CC[N+](C)(CCc3ccccc3)CC2)CC1 (stereo unspecified)
A) met

Q) hey, is growth for this one >= 80%? COc1ccc(Cn2c(NCCCN(C)C)nc(=O)n(Cc3ccc(F)cc3)c2=O)cc1
A) met

Q) Confirm if growth reported for the compound O=C(CCc1nnc2sc(Cc3ccccc3Cl)nn12)c1nc2ccccc2[nH]1 is 80% or above.
A) met

Q) Does the compound CN1CCN(Cc2ccc(NC(=O)c3[nH]ncc3Nc3ccnc4ccnn34)cc2)CC1 have recorded growth that is 80% or more?
A) not met

Q) Has Cc1cc(C)n(C(=O)c2nn(-c3ccc(Cl)cc3)cc2O)n1 a recorded growth greater than or equal to 80%?
A) not met

Q) # bool: growth of N#CCNc1ccccc1N >= 80%
A) met

Q) Dear colleague, could you confirm whether CN(C)c1nc(N)nc(Cn2c(-c3nonc3N)nc3ccccc32)n1 has growth at or above 80%?
A) met

----------
# Tested on: CAKI-1 renal
# Assay remarks: NCI-60 one-dose screen, 48 h
# Setup conditions: 10 µM unless noted
Compounds without any hit were thinned out: in the full panel of roughly 83,000, 20% have a hit. Activity calls are given as the source filed them. How the source made its calls: active means growth percent below 10; inactive means the rest.
Form entry, call: pick from active, inactive

O=C(O)C(=O)O; inactive
CCCc1cc(=O)n2c(C(=O)Nc3ccccc3OC)c(C(=O)Nc3ccc(F)cc3)sc2n1; active
C=C1CC[C@@H]2[C@](C)(COC(C)=O)[C@H](OC(C)=O)CC[C@@]2(C)[C@@H]1CC(Nc1ccc(S(=O)(=O)Nc2cc(C)on2)cc1)C1=CCOC1=O (some centres not stated); inactive
CC(=O)c1nc2ccccc2n1CCn1cc(CC(N)C(=O)O)c2ccccc21 (configuration not stated); inactive
O=C1C(Cl)=C(N=Nc2c(Cl)c(O)c3ccccc3c2O)C(=O)c2ccccc21; inactive
CCCCCCCCCCC[C@@H](C[C@H]1OC(=O)[C@H]1CCCCCC)OC(=O)[C@@H](CC(C)C)NC=O; inactive

Now for another entry.
Q) Assay result, entry CCCc1nn(C)c2c(=O)[nH]c(-c3cc(S(=O)(=O)N4CCN(C)CC4)ccc3OCC)nc12 — outcome?
A) inactive

----------
# System: SF-268 CNS
# Assay remarks: NCI-60 one-dose screen, 48 h (100 = growth as untreated, 0 = no growth, -100 = all killed)
# Setup conditions: 10 µM unless noted
About 83,000 compounds went through this panel and 20% of them were active in at least one assay; those are over-represented in the sample as a whole.
Exercise: state measured growth for each of the compounds provided.
Answers are plain numbers, in %.

NCCCc1nnc(CCC(=O)c2nc3ccccc3[nH]2)o1; 115
COc1ccc(OC)c(/C=C/c2nc(=S)n(-c3ccc(Cl)cc3)[nH]2)c1; 73.7
N#Cc1c2ccccc2c2n1-c1ccccc1OC(c1ccccc1)C2=O (stereo not given); 30.1

Give growth for each of the items listed below.
1. O=C1c2ccccc2-c2c1nc1ccccc1[n+]2[O-]
2. CCCCN(CCCC)CCCOC(=O)c1ccc(N)cc1

A)
98.2
96.3

Go through the list and state growth for each entry.
1. COc1ccc(/C=C2\COc3ccc(O)c(O)c3C2=O)cc1OC
2. O=[N+]([O-])c1ccc2c(c1)S(=O)c1cc([N+](=O)[O-])ccc1N2
3. CC(C)(C)c1ccc(C(O)CCCN2CCC(C(O)(c3ccccc3)c3ccccc3)CC2)cc1 (stereo not given)
4. CCN1C[C@@H](C)n2c(c(O)c3c(=O)n(Cc4ccc(F)c(Cl)c4)nc(C(=O)NC)c32)C1=O
5. O=C(Nc1ccncc1)C(=O)c1cn(S(=O)(=O)c2cccc(F)c2)c2ccccc12

A)
1. 9.74
2. 104
3. -65.6
4. 23.2
5. 75.9

----------
Please respond with reported growth for every item in the list.
# System: LOX IMVI melanoma
# Assay remarks: NCI-60 one-dose screen, 48 h (100 = growth as untreated, 0 = no growth, -100 = all killed)
# Setup conditions: 10 µM unless noted
About 83,000 compounds went through this panel and 20% of them were active in at least one assay; those are over-represented in the sample as a whole.
Numbers only, in %.

COc1c(O)cc2oc3cc(O)c(CC=C(C)C)c(O)c3c(=O)c2c1C/C=C(\C)CCC=C(C)C; -85.8
COc1ccc(-c2c(-c3cc(OC)c(OC)c(OC)c3)noc2N)cc1; 17.6

Your task in this section: give growth for each listed record.
1. CCn1c2c(c3ccccc31)SC1c3cccn3CCN1C2=S (configuration not stated)
2. CCN(CC)CCNc1ccc(Cl)cc1Cl
3. COc1ccc2c(c1)/C(=C\c1c[nH]c3ccc(F)cc13)C(=O)N2

A)
1: 96.8; 2: 102; 3: 74.3

----------
# Tested on: MDA-MB-435 melanoma
# Assay remarks: NCI-60 one-dose screen, 48 h (100 = growth as untreated, 0 = no growth, -100 = all killed)
# Setup conditions: 10 µM unless noted
The panel holds about 83,000 compounds, 20% with a hit somewhere; the sample as a whole holds those more often.
Measured endpoint: growth (%)
Answers are plain numbers, in %.

Check out these entries, answers already filled in.
CCN(CC)CCOc1ccccc1-n1c(C)ccc1-c1ccccc1; 42.1
O=C(/C=C/c1cccnc1)NCCCCC1CCCN(C(=O)c2ccccc2)C1 (stereo unspecified); 7.35
CCOC(=O)c1c2c(c(C)n1Cc1ccccc1)-c1nc(N)ncc1CC2; 136

For every record below, what is its growth?
1. CC1=CC(=O)C(C(C)=Nc2ccccc2Cl)C(=O)O1 (stereo unspecified)
2. Cc1ccc(C(C)C)cc1NC(=O)Nc1ccc([N+](=O)[O-])cc1
3. NNC(=O)NO
4. CC(C)[C@H]1CC[C@H]2[C@@H](CC[C@H]3[C@](C)(CN)CCC[C@]23C)C1
5. COc1ccc(/C=N\Nc2ccc([N+](=O)[O-])cn2)cc1OC
6. CCCCC1Nc2nc(SC)n(C)c(=O)c2CN(Cc2ccccc2)C1=O (stereo unspecified)
7. COc1ccc2c(c1)C(=O)/C(=C/c1cccc(OCC(=O)c3ccccc3)c1)CC2
8. ClC1=C(Cl)C(Cl)=C(Cl)C1=C/C=C/c1ccccc1

A)
1. 111
2. 11
3. 108
4. 1.77
5. 72.9
6. 99.4
7. 41.1
8. -28.5
